Tested on: 439559-082-T-J2-PDC complex spheroid growth
Experiment: Anticancer human tumor 439559-082-T-J2-PDC patient-derived colon adenocarcinoma cell line growth inhibition [Asc]
Conditions: second compound 1 µM; first compound 0.00316 µM; stronger effect = lower value
Description: Multicellular complex tumor spheroid response to apoptosis pathway targeting inhibitors Alrizomadlin, Pelcitoclax, and Dasminapant in combination with a variety of drugs and investigational agents in selected tumor cell lines […] Compounds. […] If the clinical Cmax for an agent had not been determined, the highest concentration tested was 10 microM. […]
Measured Attribute: viability, T/C (%)
Provide the reading as a plain figure in %.

[
  {
    "Molecule": "Cn1ncnc1[C@H]1c2n[nH]c(=O)c3cc(F)cc(c23)N[C@@H]1c1ccc(F)cc1 + CNC(C)C(=O)NC1CN(S(=O)(=O)c2cccc(S(=O)(=O)N3CCC4CCC(C(=O)NC(c5ccccc5)c5ccccc5)N4C(=O)C(NC(=O)C(C)NC)C3)c2)CCC2CCC(C(=O)NC(c3ccccc3)c3ccccc3)N2C1=O",
    "Unit Abbrev": "%",
    "viability, T/C": 79.5
  },
  {
    "Molecule": "NC1CCC(NC2CC2c2ccccc2)CC1 (stereo not drawn) + Cc1c(S(C)(=O)=O)c(-c2cc(F)cc(N3CCN(c4ccc(NS(=O)(=O)c5ccc(NC(CCN6CCC(C(=O)OCCCP(=O)(O)O)CC6)CSc6ccccc6)c(S(=O)(=O)C(F)(F)F)c5)cc4)CC3)c2)c(-c2ccc(Cl)cc2)n1C(C)C",
    "Unit Abbrev": "%",
    "viability, T/C": 117
  }
]

Please examine the following record next.
Ask: Reported viability, T/C for 439559-082-T-J2-PDC complex spheroid growth, given CCN1CCN(Cc2ccc(Nc3ncc(F)c(-c4cc(F)c5nc(C)n(C(C)C)c5c4)n3)nc2)CC1 + Cc1c(S(C)(=O)=O)c(-c2cc(F)cc(N3CCN(c4ccc(NS(=O)(=O)c5ccc(NC(CCN6CCC(C(=O)OCCCP(=O)(O)O)CC6)CSc6ccccc6)c(S(=O)(=O)C(F)(F)F)c5)cc4)CC3)c2)c(-c2ccc(Cl)cc2)n1C(C)C ?
Result: 96.5

###

Tested on: 439559-082-T-J2-PDC complex spheroid growth
Assay: Anticancer human tumor 439559-082-T-J2-PDC cell line growth inhibition [Asc];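 further: spheroids exposed to agents for 7 days starting day 3 after seeding; percent of DMSO vehicle control viability with 100% = vehicle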
Conditions: second compound 0.0949 µM; first compound 0.1 µM; stronger effect = lower value
Attribute: viability, T/C
Provide the reading as a plain figure in %.

Reference set (5 entries):
[
  {
    "Compound": "C=CC(=O)N1CCN(c2nc(=O)n(-c3c(C)ccnc3C(C)C)c3nc(-c4c(O)cccc4F)c(F)cc23)C(C)C1 (stereo unspecified) + CCN1C(C(=O)NC23CCC(C(=O)O)(CC2)CC3)C(c2cccc(Cl)c2F)C2(C(=O)Nc3cc(Cl)ccc32)C12CCCCC2",
    "Target System": "439559-082-T-J2-PDC complex spheroid growth",
    "Quantitative Readout": 106
  },
  {
    "Compound": "O=C(c1cc(Cc2n[nH]c(=O)c3ccccc23)ccc1F)N1CCN(C(=O)C2CC2)CC1 + CCN1C(C(=O)NC23CCC(C(=O)O)(CC2)CC3)C(c2cccc(Cl)c2F)C2(C(=O)Nc3cc(Cl)ccc32)C12CCCCC2",
    "Target System": "439559-082-T-J2-PDC complex spheroid growth",
    "Quantitative Readout": 113
  },
  {
    "Compound": "NC1CCC(NC2CC2c2ccccc2)CC1 (stereo unspecified) + CCN1C(C(=O)NC23CCC(C(=O)O)(CC2)CC3)C(c2cccc(Cl)c2F)C2(C(=O)Nc3cc(Cl)ccc32)C12CCCCC2",
    "Target System": "439559-082-T-J2-PDC complex spheroid growth",
    "Quantitative Readout": 107
  },
  {
    "Compound": "COc1c(OCCCN2CCOCC2)ccc2c3n(c(=NC(=O)c4cnc(N)nc4)nc12)CCN3 + CCN1C(C(=O)NC23CCC(C(=O)O)(CC2)CC3)C(c2cccc(Cl)c2F)C2(C(=O)Nc3cc(Cl)ccc32)C12CCCCC2",
    "Target System": "439559-082-T-J2-PDC complex spheroid growth",
    "Quantitative Readout": 69
  },
  {
    "Compound": "O=C(c1ccc(F)c(F)c1Nc1ccc(I)cc1F)N1CC(O)([C@@H]2CCCCN2)C1 + CCN1C(C(=O)NC23CCC(C(=O)O)(CC2)CC3)C(c2cccc(Cl)c2F)C2(C(=O)Nc3cc(Cl)ccc32)C12CCCCC2",
    "Target System": "439559-082-T-J2-PDC complex spheroid growth",
    "Quantitative Readout": 58.2
  }
]

Please examine the following record next.
Ask: Entry Cn1ncnc1[C@H]1c2n[nH]c(=O)c3cc(F)cc(c23)N[C@@H]1c1ccc(F)cc1 + CCN1C(C(=O)NC23CCC(C(=O)O)(CC2)CC3)C(c2cccc(Cl)c2F)C2(C(=O)Nc3cc(Cl)ccc32)C12CCCCC2 : reported viability, T/C = ?
Result: 96.6
